Catalogue of solubility (mole fraction) readings, one per entry.
CONDITIONS: in ethyl acetate, 308.15 K

Example results:
COc1cc(-c2cc(-c3ccc(Br)cc3)[nH]c(=O)c2C#N)ccc1O
0.00124
COc1cc(-c2cc(-c3ccc(Cl)cc3)[nH]c(=O)c2C#N)ccc1O
0.0014
COc1cc(-c2cc(-c3ccc(F)cc3)[nH]c(=O)c2C#N)ccc1O
0.0015
COc1cc(-c2cc(-c3ccc(O)cc3)[nH]c(=O)c2C#N)ccc1O
0.00117

Now for the molecule whose solubility (mole fraction) we want.
Request: Supply solubility (mole fraction) value. Item: "COc1ccc(-c2cc(-c3ccc(O)c(OC)c3)c(C#N)c(=O)[nH]2)cc1"
Response: 0.00123
